# System: M14 melanoma
# Protocol Details: NCI tumour cell line growth inhibition, 48 h; in the data active = GI50 below about 0.43 µM; inactive = the rest
Outcome codes: label 1 (active), label 0 (inactive)

{"Compound": "Cc1nc(-c2ccccc2)n2nc(NCCCN3CCOCC3)ncc12", "System Name": "M14 melanoma", "Class Label": "label 0"}
{"Compound": "COc1ccc(-c2ccncc2)cc1C(N)=O", "System Name": "M14 melanoma", "Class Label": "label 0"}
{"Compound": "O=C(Nc1cc(C(F)(F)F)ccc1Cl)c1ccc(NC2=C(Cl)C(=O)N(Cc3ccccc3)C2=O)cc1", "System Name": "M14 melanoma", "Class Label": "label 0"}
{"Compound": "Cc1nn[n-]n1.N.N.N.N.N.[Cl-].[Co+3]", "System Name": "M14 melanoma", "Class Label": "label 0"}
{"Compound": "Cn1c(-c2c(N)n(Nc3cccc(Cl)c3)c3nc(C#N)c(C#N)nc23)nc2ccccc21", "System Name": "M14 melanoma", "Class Label": "label 0"}
{"Compound": "Cc1ncc(C(=O)Nc2ccc(CN3CCN(C)CC3)c(C(F)(F)F)c2)cc1C#Cc1cnc2cccnn12", "System Name": "M14 melanoma", "Class Label": "label 1"}
{"Compound": "NS(=O)(=O)c1ccc(-n2nc3c(c2-c2ccc(Cl)cc2)Cc2ccccc2-3)cc1", "System Name": "M14 melanoma", "Class Label": "label 0"}
{"Compound": "COc1ccc(S(=O)(=O)N2CCN(C(=O)c3ccc(-c4ccccc4)cc3)CC2C(=O)NO)cc1 (stereo not given)", "System Name": "M14 melanoma", "Class Label": "label 0"}
{"Compound": "CC(=O)c1ccc2c(c1)C1C=CCC1[C@H](c1cc3c(cc1Br)OCO3)N2 (stereo not given in full)", "System Name": "M14 melanoma", "Class Label": "label 0"}
{"Compound": "COc1ccc2c(=O)cc(-c3ccccc3)[nH]c2c1", "System Name": "M14 melanoma", "Class Label": "label 0"}
